Cited source: patent US11434221B2

test system: Setaria faberi (SETFA); test: Pre-emergence herbicidal activity, glasshouse pot test; assay type: in vivo; conditions: Rate 1000 g/ha; sprayed one day after sowing; evaluated after 13 days
Control of weed species after pre-emergence application, SETFA (damage score 0-5) by entry:
readout: Control of weed species after pre-emergence application, SETFA (damage score 0-5)

INSERT INTO results (molecule, test_result) VALUES
  ('CC(C)(C)OC(=O)Nc1ncc(-c2cncnc2)nc1C(F)F [Compound H30]', 4),
  ('CC(C)(C)OC(=O)N(C(=O)OC(C)(C)C)c1ncc(-c2cncc(F)c2)nc1C1CC1 [Compound H12]', 4),
  ('COc1nc(-c2cncc(F)c2)cnc1N(C(=O)OC(C)(C)C)C(=O)OC(C)(C)C [Compound H6]', 4),
  ('Cc1nc(-c2cncnc2)cnc1NC(=O)OC(C)(C)C [Compound H23]', 4);
